target: MLTK (human) (UniProt Q9NYL2); assay: radiometric filter-binding kinase assay, Kinase HotSpot; conditions: compound 0.5 µM; ATP 10 µM
Sequence (Q9NYL2 whole entry, looked up): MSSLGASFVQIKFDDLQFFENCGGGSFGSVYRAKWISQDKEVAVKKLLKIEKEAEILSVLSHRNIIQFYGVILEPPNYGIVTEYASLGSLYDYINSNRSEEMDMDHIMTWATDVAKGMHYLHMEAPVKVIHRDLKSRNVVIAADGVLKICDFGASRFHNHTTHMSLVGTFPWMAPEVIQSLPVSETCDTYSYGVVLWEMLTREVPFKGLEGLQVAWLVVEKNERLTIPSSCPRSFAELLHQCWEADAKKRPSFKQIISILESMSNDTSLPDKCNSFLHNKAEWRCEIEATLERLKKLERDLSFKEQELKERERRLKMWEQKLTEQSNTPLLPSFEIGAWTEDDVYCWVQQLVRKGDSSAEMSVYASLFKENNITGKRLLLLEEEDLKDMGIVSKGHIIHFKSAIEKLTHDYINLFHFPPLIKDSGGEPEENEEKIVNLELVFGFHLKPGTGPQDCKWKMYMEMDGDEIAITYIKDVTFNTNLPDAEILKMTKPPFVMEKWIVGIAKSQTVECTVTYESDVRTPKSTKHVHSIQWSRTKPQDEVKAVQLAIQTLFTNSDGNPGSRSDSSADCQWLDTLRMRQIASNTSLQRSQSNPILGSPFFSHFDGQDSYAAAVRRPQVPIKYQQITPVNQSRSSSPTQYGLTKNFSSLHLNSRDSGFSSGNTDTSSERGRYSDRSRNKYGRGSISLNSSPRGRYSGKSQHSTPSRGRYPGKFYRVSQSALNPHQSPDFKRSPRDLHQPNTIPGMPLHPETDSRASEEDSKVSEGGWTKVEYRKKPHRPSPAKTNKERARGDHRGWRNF
Sorting guide: entries reporting residual activity beneath 90% go in the criterion met pile, the rest go in the criterion not met pile.

1) N#Cc1c[nH]c2c[nH]/c(=N\Cc3cccnc3)cc2/c1=N\c1ccc(F)c(Cl)c1
criterion not met
2) CN(C)S(=O)(=O)c1ccc2c(c1)/C(=C/c1cc3c([nH]1)CCCC3)C(=O)N2
criterion not met
3) Cn1c2ccccc2c2c3c(c4c5ccccc5n(CCC#N)c4c21)CNC3=O
criterion met
4) COc1cc2ncnc(Nc3ccc(OCc4ccccc4)cc3)c2cc1OC
criterion not met
5) CO[C@@H]1[C@H](N(C)C(=O)c2ccccc2)C[C@H]2O[C@]1(C)n1c3ccccc3c3c4c(c5c6ccccc6n2c5c31)C(=O)NC4
criterion not met
6) COc1ccc2c(c1)c(C1=C(c3c[nH]c4ccccc34)C(=O)NC1=O)cn2CCCN(C)C
criterion not met
7) C[C@@H]1CCN(C(=O)CC#N)C[C@@H]1N(C)c1ncnc2[nH]ccc12
criterion not met
8) CCCCc1c(-c2ccc(OC)cc2)[nH]c2nccnc12
criterion met
9) O=C(c1cc2cc(O)ccc2[nH]1)c1cc2cc(O)ccc2[nH]1
criterion met
10) NC(=O)c1cccc(-c2cc(Nc3ccc(OC(F)(F)F)cc3)ncn2)c1
criterion not met
11) COc1ccc(C(=O)Nc2sc3c(c2C(N)=O)CCCC3)cc1OC
criterion not met
12) O=C1C(Cl)=C(N2C(=O)CCC2=O)C(=O)c2ccccc21
criterion not met
13) CN(C)c1ccc(/C=C2\C(=O)Nc3ccccc32)cc1
criterion not met
14) COc1ccc(S(=O)(=O)N(CCO)c2ccccc2CN(C)C/C=C/c2ccc(Cl)cc2)cc1
criterion not met
15) c1ccc2c(-c3ccncc3)c[nH]c2c1
criterion not met

###

molecular target: EPHA7 (human) (UniProt Q15375); assay: radiometric filter-binding kinase assay, Kinase HotSpot; conditions: compound 0.5 µM; ATP 10 µM
Sequence (Q15375 whole entry, looked up): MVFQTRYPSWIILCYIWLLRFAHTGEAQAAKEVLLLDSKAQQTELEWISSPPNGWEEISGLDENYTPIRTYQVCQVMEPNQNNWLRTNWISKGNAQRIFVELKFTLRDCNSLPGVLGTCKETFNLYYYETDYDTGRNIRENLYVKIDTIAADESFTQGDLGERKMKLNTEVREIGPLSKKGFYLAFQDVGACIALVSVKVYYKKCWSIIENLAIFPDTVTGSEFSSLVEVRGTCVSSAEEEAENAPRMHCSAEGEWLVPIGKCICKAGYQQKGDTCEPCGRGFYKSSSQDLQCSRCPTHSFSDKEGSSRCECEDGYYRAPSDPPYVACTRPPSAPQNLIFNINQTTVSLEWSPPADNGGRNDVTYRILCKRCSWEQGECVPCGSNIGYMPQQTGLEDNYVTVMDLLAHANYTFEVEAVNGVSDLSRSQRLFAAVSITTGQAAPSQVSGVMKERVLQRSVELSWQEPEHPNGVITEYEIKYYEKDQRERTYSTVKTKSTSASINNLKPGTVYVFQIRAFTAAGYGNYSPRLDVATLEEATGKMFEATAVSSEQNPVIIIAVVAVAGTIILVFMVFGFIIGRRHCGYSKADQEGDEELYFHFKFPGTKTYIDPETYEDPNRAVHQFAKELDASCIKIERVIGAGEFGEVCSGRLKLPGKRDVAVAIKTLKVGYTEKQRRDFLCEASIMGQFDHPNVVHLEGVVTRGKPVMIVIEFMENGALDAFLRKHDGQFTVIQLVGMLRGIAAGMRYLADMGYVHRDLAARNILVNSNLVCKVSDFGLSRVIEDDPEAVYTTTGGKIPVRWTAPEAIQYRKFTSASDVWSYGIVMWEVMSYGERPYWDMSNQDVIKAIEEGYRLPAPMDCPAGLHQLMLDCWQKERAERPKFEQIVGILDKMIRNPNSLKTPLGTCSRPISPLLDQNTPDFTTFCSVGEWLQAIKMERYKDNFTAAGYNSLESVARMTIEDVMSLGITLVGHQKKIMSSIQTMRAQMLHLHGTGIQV
readout: residual activity (%)

1. Cc1nc(-c2ccccc2)c(-c2ccncc2)o1
91.5
2. COc1ccc2c(c1)/C(=C/c1cnc[nH]1)C(O)=N2
90.4
3. Cn1c2ccccc2c2c3c(c4c5ccccc5n(CCC#N)c4c21)CNC3=O
62.6
4. CC(C)(C)c1cc(C=C(C#N)C#N)cc(Br)c1O
107
5. CCCCc1c(-c2ccc(OC)cc2)[nH]c2nccnc12
98
6. NC(=O)c1cccc(-c2cc(Nc3ccc(OC(F)(F)F)cc3)ncn2)c1
99.1
7. CN(C)S(=O)(=O)c1ccc2c(c1)/C(=C/c1cc3c([nH]1)CCCC3)C(=O)N2
91.1
8. COc1ccc2c(c1)c(C1=C(c3c[nH]c4ccccc34)C(=O)NC1=O)cn2CCCN(C)C
88.8
9. COc1ccc(Cl)cc1NC(=O)Nc1cc(C)nc2ccccc12
99.7
10. COc1ccc(C(=O)Nc2sc3c(c2C(N)=O)CCCC3)cc1OC
96.2
11. O=C1NC(=O)c2c1c1c3ccccc3[nH]c1n1cncc21
78.8
12. COc1cc2ncnc(Nc3ccc(Oc4ccccc4)cc3)c2cc1OC
100
13. Ic1cccc(CSc2nnc(-c3ccncc3)o2)c1
100
14. Cc1cccc(-c2nc(C(C)(C)C)[nH]c2-c2ccc3c(c2)OCO3)n1
81.6
15. N#C/C(=C\c1ccc(O)c(O)c1)C(=O)NCc1ccccc1
89.7
16. CS(=O)(=O)CCNCc1ccc(-c2ccc3ncnc(Nc4ccc(OCc5cccc(F)c5)c(Cl)c4)c3c2)o1
95.6
17. O=C(c1cc2cc(O)ccc2[nH]1)c1cc2cc(O)ccc2[nH]1
101
18. c1ccc2c(-c3ccncc3)c[nH]c2c1
98.2
19. Cc1cncc2cccc(S(=O)(=O)N3CCCN(C(=O)CN)C[C@H]3C)c12
90.7
20. Fc1ccc(-c2nc3n(c2-c2ccncc2)CCS3)cc1
76.3
21. C[C@@H]1CCN(C(=O)CC#N)C[C@@H]1N(C)c1ncnc2[nH]ccc12
89
22. O=C1c2ccccc2-c2nc3nnnn3nc21
81.9

###

# key: entry, value: residual activity
biological target: CDC42BPB (human) (UniProt Q9Y5S2); test: radiometric filter-binding kinase assay, Kinase HotSpot; conditions: compound 0.5 µM; ATP 10 µM
Sequence (Q9Y5S2 whole entry, looked up): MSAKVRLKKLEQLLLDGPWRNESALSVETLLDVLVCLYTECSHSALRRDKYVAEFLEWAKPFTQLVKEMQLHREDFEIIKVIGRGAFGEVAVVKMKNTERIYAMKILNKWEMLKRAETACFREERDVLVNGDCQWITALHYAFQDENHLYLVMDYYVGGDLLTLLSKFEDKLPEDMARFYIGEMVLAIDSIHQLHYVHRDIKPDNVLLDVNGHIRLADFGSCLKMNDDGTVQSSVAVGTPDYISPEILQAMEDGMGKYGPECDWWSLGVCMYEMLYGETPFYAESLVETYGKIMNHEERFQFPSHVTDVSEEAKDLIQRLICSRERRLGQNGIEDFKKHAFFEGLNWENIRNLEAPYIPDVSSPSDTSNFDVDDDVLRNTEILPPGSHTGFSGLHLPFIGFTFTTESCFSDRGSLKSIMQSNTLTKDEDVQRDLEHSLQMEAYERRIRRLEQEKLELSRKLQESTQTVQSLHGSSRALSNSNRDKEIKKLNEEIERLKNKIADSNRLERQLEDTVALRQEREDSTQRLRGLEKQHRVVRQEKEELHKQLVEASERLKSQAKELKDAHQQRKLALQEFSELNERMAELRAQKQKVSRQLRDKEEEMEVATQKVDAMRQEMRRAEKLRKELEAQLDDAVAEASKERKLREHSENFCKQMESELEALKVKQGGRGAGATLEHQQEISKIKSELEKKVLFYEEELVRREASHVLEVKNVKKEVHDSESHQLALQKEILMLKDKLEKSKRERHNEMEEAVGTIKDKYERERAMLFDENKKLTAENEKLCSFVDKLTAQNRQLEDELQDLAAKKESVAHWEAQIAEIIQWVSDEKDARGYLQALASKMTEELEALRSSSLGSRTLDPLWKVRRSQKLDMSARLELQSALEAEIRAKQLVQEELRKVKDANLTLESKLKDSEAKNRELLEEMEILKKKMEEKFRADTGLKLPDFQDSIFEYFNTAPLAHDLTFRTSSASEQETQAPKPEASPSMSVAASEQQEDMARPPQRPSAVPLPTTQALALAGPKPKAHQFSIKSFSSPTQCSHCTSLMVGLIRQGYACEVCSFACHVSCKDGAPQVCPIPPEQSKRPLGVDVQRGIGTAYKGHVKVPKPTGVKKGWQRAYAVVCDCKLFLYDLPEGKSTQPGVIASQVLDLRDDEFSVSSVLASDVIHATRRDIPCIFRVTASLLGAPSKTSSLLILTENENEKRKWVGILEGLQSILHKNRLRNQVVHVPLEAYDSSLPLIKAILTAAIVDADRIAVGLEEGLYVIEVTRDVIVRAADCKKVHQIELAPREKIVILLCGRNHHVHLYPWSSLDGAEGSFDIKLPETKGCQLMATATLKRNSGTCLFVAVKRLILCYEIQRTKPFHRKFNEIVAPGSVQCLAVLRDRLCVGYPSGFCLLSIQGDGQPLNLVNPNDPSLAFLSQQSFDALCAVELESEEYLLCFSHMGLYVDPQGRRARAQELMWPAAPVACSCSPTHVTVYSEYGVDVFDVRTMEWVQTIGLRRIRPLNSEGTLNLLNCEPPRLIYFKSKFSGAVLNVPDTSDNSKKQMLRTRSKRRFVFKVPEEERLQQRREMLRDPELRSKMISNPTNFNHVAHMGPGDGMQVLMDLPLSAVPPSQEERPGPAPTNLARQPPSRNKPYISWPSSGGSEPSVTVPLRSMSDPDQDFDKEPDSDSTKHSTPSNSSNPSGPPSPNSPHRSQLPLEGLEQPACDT
readout: residual activity

1) COc1ccc2c(c1)/C(=C/c1cnc[nH]1)C(O)=N2
104%
2) CS(=O)(=O)CCNCc1ccc(-c2ccc3ncnc(Nc4ccc(OCc5cccc(F)c5)c(Cl)c4)c3c2)o1
95.7%
3) CN(C)CCCn1cc(C2=C(c3c[nH]c4ccccc34)C(=O)NC2=O)c2ccccc21
90.8%
4) Fc1ccc(-c2nc3n(c2-c2ccncc2)CCS3)cc1
115%
5) CN(C)S(=O)(=O)c1ccc2c(c1)/C(=C/c1cc3c([nH]1)CCCC3)C(=O)N2
101%
6) COc1ccc(Cl)cc1NC(=O)Nc1cc(C)nc2ccccc12
94.4%
7) O=C1C(Cl)=C(N2C(=O)CCC2=O)C(=O)c2ccccc21
98.6%
8) C[C@@H]1CCN(C(=O)CC#N)C[C@@H]1N(C)c1ncnc2[nH]ccc12
95.4%
9) Ic1cccc(CSc2nnc(-c3ccncc3)o2)c1
96.6%
10) N#C/C(=C\c1ccc(O)c(O)c1)C(=O)NCc1ccccc1
103%
11) O=C(c1cc2cc(O)ccc2[nH]1)c1cc2cc(O)ccc2[nH]1
96.2%
12) NC(=O)c1cccc(-c2cc(Nc3ccc(OC(F)(F)F)cc3)ncn2)c1
93.2%
13) COc1ccc2c(c1)c(C1=C(c3c[nH]c4ccccc34)C(=O)NC1=O)cn2CCCN(C)C
89.4%
14) O=C1Nc2ccc(Br)cc2/C1=C\c1cc2c([nH]1)CCCC2
114%
15) COc1cc(Nc2c(C#N)cnc3cc(OCCCN4CCN(C)CC4)c(OC)cc23)c(Cl)cc1Cl
88.2%
16) Cc1cncc2cccc(S(=O)(=O)N3CCCN(C(=O)CN)C[C@H]3C)c12
105%
17) COc1cc2ncnc(Nc3ccc(OCc4ccccc4)cc3)c2cc1OC
98.8%
18) CCCCc1c(-c2ccc(OC)cc2)[nH]c2nccnc12
92.5%
19) Cc1cccc(-c2nc(C(C)(C)C)[nH]c2-c2ccc3c(c2)OCO3)n1
102%
20) N#Cc1c[nH]c2c[nH]/c(=N\Cc3cccnc3)cc2/c1=N\c1ccc(F)c(Cl)c1
124%
21) Cn1c2ccccc2c2c3c(c4c5ccccc5n(CCC#N)c4c21)CNC3=O
92.1%
22) Cc1nc(-c2ccccc2)c(-c2ccncc2)o1
101%

###

Entries and their measured residual activity follow.
biological target: CSNK1G1 (human); assay: radiometric filter-binding kinase assay, Kinase HotSpot; settings: compound 0.5 µM; ATP 10 µM
readout: residual activity (%)

1) Ic1cccc(CSc2nnc(-c3ccncc3)o2)c1
91.7
2) CN(C)CCCn1cc(C2=C(c3c[nH]c4ccccc34)C(=O)NC2=O)c2ccccc21
99.1
3) CN(C)S(=O)(=O)c1ccc2c(c1)/C(=C/c1cc3c([nH]1)CCCC3)C(=O)N2
101
4) O=C1Nc2ccc(Br)cc2/C1=C\c1cc2c([nH]1)CCCC2
102
5) C[C@@H]1CCN(C(=O)CC#N)C[C@@H]1N(C)c1ncnc2[nH]ccc12
101
6) Cc1nc(-c2ccccc2)c(-c2ccncc2)o1
91.1
7) CO[C@@H]1[C@H](N(C)C(=O)c2ccccc2)C[C@H]2O[C@]1(C)n1c3ccccc3c3c4c(c5c6ccccc6n2c5c31)C(=O)NC4
103
8) COc1ccc2c(c1)/C(=C/c1cnc[nH]1)C(O)=N2
106
9) Cc1cncc2cccc(S(=O)(=O)N3CCCN(C(=O)CN)C[C@H]3C)c12
92.4

###

molecular target: TEC (human) (UniProt P42680); experiment: radiometric filter-binding kinase assay, Kinase HotSpot; details: compound 0.5 µM; ATP 10 µM
Sequence (P42680 whole entry, looked up): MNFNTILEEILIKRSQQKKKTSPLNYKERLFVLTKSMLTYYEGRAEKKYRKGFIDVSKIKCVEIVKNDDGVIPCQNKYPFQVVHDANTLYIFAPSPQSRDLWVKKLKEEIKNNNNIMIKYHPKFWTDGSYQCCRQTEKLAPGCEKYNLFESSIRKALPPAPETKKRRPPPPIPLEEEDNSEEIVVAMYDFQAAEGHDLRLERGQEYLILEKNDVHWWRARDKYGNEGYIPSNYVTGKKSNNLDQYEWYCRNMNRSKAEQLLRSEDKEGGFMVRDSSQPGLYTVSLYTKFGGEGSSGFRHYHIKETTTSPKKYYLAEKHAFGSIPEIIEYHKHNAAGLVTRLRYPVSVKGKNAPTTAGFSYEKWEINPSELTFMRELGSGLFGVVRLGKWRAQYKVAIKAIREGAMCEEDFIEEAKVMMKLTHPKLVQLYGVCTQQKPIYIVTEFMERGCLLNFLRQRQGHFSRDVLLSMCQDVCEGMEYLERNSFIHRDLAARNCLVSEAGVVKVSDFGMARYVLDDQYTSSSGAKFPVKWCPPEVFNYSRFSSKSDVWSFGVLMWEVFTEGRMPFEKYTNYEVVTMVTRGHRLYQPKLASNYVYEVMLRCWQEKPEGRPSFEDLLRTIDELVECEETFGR
readout: residual activity (%)

1) COc1ccc(S(=O)(=O)N(CCO)c2ccccc2CN(C)C/C=C/c2ccc(Cl)cc2)cc1
101
2) Cc1cncc2cccc(S(=O)(=O)N3CCCN(C(=O)CN)C[C@H]3C)c12
117
3) Cn1c2ccccc2c2c3c(c4c5ccccc5n(CCC#N)c4c21)CNC3=O
96.4
4) COc1cc2ncnc(Nc3ccc(Oc4ccccc4)cc3)c2cc1OC
43.3
5) O=C1NC(=O)c2c1c1c3ccccc3[nH]c1n1cncc21
96.7
6) O=C1c2ccccc2-c2nc3nnnn3nc21
2.44
7) CN(C)CCCn1cc(C2=C(c3c[nH]c4ccccc34)C(=O)NC2=O)c2ccccc21
116
8) CC(C)(C)c1cc(C=C(C#N)C#N)cc(Br)c1O
171
9) CN(C)S(=O)(=O)c1ccc2c(c1)/C(=C/c1cc3c([nH]1)CCCC3)C(=O)N2
116
10) N#Cc1c[nH]c2c[nH]/c(=N\Cc3cccnc3)cc2/c1=N\c1ccc(F)c(Cl)c1
118
11) O=C(c1cc2cc(O)ccc2[nH]1)c1cc2cc(O)ccc2[nH]1
105
